Here we list compounds with their recorded IC50 when tested on CYP3A4 (Homo sapiens).
Sequence (P08684 whole entry): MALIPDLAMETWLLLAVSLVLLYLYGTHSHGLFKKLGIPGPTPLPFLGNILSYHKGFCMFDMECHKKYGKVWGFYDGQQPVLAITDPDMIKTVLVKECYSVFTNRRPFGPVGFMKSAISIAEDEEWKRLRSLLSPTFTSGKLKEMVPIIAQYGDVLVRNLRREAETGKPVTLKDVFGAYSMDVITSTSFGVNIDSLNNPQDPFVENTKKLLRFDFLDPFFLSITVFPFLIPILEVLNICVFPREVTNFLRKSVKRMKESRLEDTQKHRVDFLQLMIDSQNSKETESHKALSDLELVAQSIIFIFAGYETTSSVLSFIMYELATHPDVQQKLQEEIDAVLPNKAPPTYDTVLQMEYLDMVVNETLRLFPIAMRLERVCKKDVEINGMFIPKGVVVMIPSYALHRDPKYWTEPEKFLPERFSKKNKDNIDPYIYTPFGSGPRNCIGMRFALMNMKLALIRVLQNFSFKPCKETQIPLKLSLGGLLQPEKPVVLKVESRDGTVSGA

Item under review: COc1ccc2c(c1OCc1ccccc1)C[C@@H](C(=O)O)N(C(=O)[C@@H](OC1CC(F)(F)C1)c1ccccc1)C2 [Compound 51] . Reported IC50?
> 50 µM

Can you handle COc1ccc2c(c1OCc1ccccc1)C[C@@H](C(=O)O)N(C(=O)C(c1ccccc1)c1ccccc1)C2 [EMA-401, reference compound] next?
9.19 µM

Can you handle COc1ccc2c(c1OCc1ccccc1)C[C@@H](C(=O)O)N(C(=O)[C@@H](OC1CCCC1)c1ccccc1)C2 [Compound 37] next?
> 50 µM

Can you handle O=C(O)[C@@H]1Cc2c(ccc(Cl)c2OCc2ccccc2)CN1C(=O)[C@@H](OC1CCCC1)c1ccccc1 [Compound 107] next?
> 50 µM

====

Documented pIC50 across a set of compounds
Protein target, amino acids: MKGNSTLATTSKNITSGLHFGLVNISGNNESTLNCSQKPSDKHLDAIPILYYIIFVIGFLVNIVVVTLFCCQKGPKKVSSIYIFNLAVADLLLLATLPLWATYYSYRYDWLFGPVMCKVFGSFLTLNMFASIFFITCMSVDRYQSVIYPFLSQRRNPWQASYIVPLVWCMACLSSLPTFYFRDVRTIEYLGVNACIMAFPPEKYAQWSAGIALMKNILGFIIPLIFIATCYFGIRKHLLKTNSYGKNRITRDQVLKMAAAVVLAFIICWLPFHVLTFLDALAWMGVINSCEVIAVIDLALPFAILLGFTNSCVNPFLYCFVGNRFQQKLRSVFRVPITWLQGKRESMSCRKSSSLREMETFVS
Remember, pIC50 is on a log scale: it is -log10 of the molar concentration.

Would you please look over these solved cases?
> print(dat)
                                   compound  quantity  endpoint.result
1  COc1ccc2c(c1OCc1ccccc1)C[C@@H](C(=O)O)N(C(=O)[C@@H](Oc1ccc(F)cc1)c1ccccc1)C2     pIC50             7.22
2  COc1ccc2c(c1OCc1ccccc1)C[C@@H](C(=O)O)N(C(=O)C(OC1CCC(O)CC1)c1ccccc1)C2 (stereo partly shown)     pIC50             7.67
3  COc1ccc(O[C@@H](C(=O)N2Cc3ccc(OC)c(OCc4ccccc4)c3C[C@H]2C(=O)O)c2ccccc2)cc1     pIC50             6.72

Moving on to the next compound.
Item under review: COc1ccc2c(c1OCc1ccccc1)CC(C(=O)O)N(C(=O)C(OC1CCOCC1)c1ccccc1)C2 (single isomer, unassigned) . Reported pIC50?
7.18

====

Assay: Plasma protein binding rate (PPB) test, equilibrium dialysis
Type: in vitro ADME
Conditions: human, 37°C
Documented fraction unbound at 4 h across a set of compounds

Would you please look over these solved cases?
> print(dat)
                                   compound                 quantity  endpoint.result
1  COc1ccc2c(c1OCc1ccccc1)C[C@@H](C(=O)O)N(C(=O)[C@@H](O[C@H]1CC[C@@H](O)CC1)c1ccccc1)C2  fraction unbound at 4 h            0.016
2  N#Cc1ccc2c(c1OCc1ccccc1)C[C@@H](C(=O)O)N(C(=O)[C@H](OC1CCCC1)c1ccccc1)C2  fraction unbound at 4 h            0.002
3  COc1ccc2c(c1OCc1ccccc1)C[C@@H](C(=O)O)N(C(=O)C(c1ccccc1)c1ccccc1)C2 [EMA-401, reference compound]  fraction unbound at 4 h            0.002
4  COc1ccc2c(c1OCc1ccccc1)C[C@@H](C(=O)O)N(C(=O)[C@@H](OC1CC(F)(F)C1)c1ccccc1)C2  fraction unbound at 4 h            0.007
5  COc1ccc2c(c1OCc1ccccc1)C[C@@H](C(=O)O)N(C(=O)[C@@H](OC1(C)CCCC1)c1ccccc1)C2  fraction unbound at 4 h            0.005

Moving on to the next compound.
Item under review: "COc1ccc2c(c1OCc1ccccc1)C[C@@H](C(=O)O)N(C(=O)[C@@H](OC1CCCC1)c1ccccc1)C2" . Reported fraction unbound at 4 h?
0.004

Data provenance is patent US11021445B2.
